Attribution: PubChem BioAssay (NCI)

test system: K-562 leukemia; assay: NCI tumour cell line growth inhibition, 48 h
metricName: TGI

INSERT INTO assay_data (compound, datavalue) VALUES
  ('Cc1c(C)c(S(=O)(=O)N(CCCN)OCCCN)c(C)c2c1OC(C)(C)CC2', '29.6 µM'),
  ('CCCCNC(=O)Oc1ccc(/C(=C(\C)c2ccc(OC)cc2)c2ccc(OCCN3CCCCC3)cc2)cc1', '4.65 µM');

I have 4 compounds here; please give me TGI for each one.
1. Cc1cn(C(CO)OC(CO)CN(O)C2C3CC4CC(C3)CC2C4)c(=O)[nH]c1=O (stereo not given)
2. COc1ccc(/C=C/c2cc(OC)c(OC)c(OC)c2)cc1OC
3. CC(C)CC(C#CCCOC(=O)c1ccccc1)OC(=O)c1ccccc1 (stereo not given)
4. C[C@]12CC[C@@H]3c4ccc(O)cc4CC[C@H]3[C@@H]1CC(Cc1ccccc1)(Cc1ccccc1)C2=O

Result string:
> 100 µM
> 100 µM
> 10 µM
> 100 µM

I have 4 compounds here; please give me TGI for each one.
1. Cc1cc2[nH]c(=O)c3c4ncccc4cn3c2cc1C
2. CC1CCCc2c1n[nH]c2CC1CC(=O)NC(=O)C1 (stereo not given)
3. N#Cc1c(N)c(C(=O)c2ccc3c(c2)OCCO3)n2c1CCCC2
4. Cc1ccc(S(=O)(=O)NC(Cc2ccccc2)C(=O)CCl)cc1 (stereo not given)

Result string:
1: > 100 µM; 2: > 100 µM; 3: > 100 µM; 4: > 100 µM

###

tested on: M14 melanoma; test: NCI tumour cell line growth inhibition, 48 h
metricName: TGI (µM)
Answers are plain numbers, in µM.

INSERT INTO measurements (compound, metricname, datavalue) VALUES
  ('N[C@@H](Cc1c[nH]c2ccccc12)C(=O)NC1CCN(Cc2c[nH]c3ccc(Cl)cc23)CC1', 'TGI', 19.5);

I have 3 compounds here; please give me TGI for each one.
1. COc1ccccc1N1C(=O)CSC1c1cccc(Oc2ccccc2)c1 (stereo not given)
2. COc1ccc(-c2oc3ncnc(N)c3c2-c2ccc(NC(=O)Nc3cc(C(F)(F)F)ccc3F)cc2)cc1
3. Cc1cc(-c2nc3ccc(F)cc3s2)ccc1NC(=O)C(N)CCCCN (stereo not given)

Result string:
[33.5, 3.23, 6.57]

###

test system: SK-MEL-28 melanoma; experiment: NCI tumour cell line growth inhibition, 48 h
metricName: TGI

Some molecules with recorded TGI:
INSERT INTO measurements (molecule, targetundertest, metricname, datavalue) VALUES
  ('COc1cccc(C2SC(C)C(=O)N2NC(=O)C(O)c2ccccc2)c1 (stereo not given)', 'SK-MEL-28 melanoma', 'TGI', '> 100 µM'),
  ('O=C(O)c1nn(-c2ccc(Cl)cc2)c2c1C(=O)c1ccccc1C2=O', 'SK-MEL-28 melanoma', 'TGI', '> 100 µM'),
  ('CC1CN=C(N(C(=O)Nc2ccc(Cl)cc2)c2cccc(Cl)c2)S1 (stereo not given)', 'SK-MEL-28 melanoma', 'TGI', '> 100 µM'),
  ('Cc1cccc2c(=O)c3c(sc12)c(NCCCN)nc1ccccc13', 'SK-MEL-28 melanoma', 'TGI', '3.41 µM');

We now examine a further molecule.
Query string: TGI for CC1=C(O)C(=O)C2C(=O)C1C(C)C2c1ccccc1 (stereo not given) ?
Result string: > 100 µM
